# TEST_TARGET: E2F in HeLa cells (nuclear extracts; endogenous E2F in transfected HeLa cells)
# ASSAY_NOTES: band shift with HeLa nuclear extract; inhibition of E2F DNA binding
Ends that are not written are not given here.
ENDPOINT_NAME: IC50
Returns: string containing the number followed by the unit.

GSRILTFRSGSWYAS [peptide SEQ ID NO:5 (…)]; 100 µM

Below: the item to evaluate.
-- ask Read the entry GSRILTFRSGSWYAS (also: tetravalent MAP core: 4 copies joined by C-terminus to Lys2-Lys-X core, Branched tetravalent peptide on a lysine MAP core) [MAP4-SEQ ID NO:5] and write its reported IC50.
-- reply 10 µM

Reference for the values: patent US6841385B2
